Experiment Description: Stability in human plasma
Type: in vitro ADME
Condition Label: read-out: Plasma Stability T1/2
Protocol: Stability in Human Plasma. Stock compounds were prepared for testing the stability in human plasma. First, 0.05 M sodium phosphate and 0.07 M NaCl buffer, pH 7.4, were pre-heated. In deionized water, 14.505 g/L Na2HPO 12H2O, 1.483 g/L NaH2PO4.2H2O and 4.095 g/L NaCl were dissolved. The basic solution was titrated with the phosphoric acid to pH 7.40. Frozen plasma was quickly thawed at 37° C. […]
Metric: half-life at 2 μM (h)
Give just the number in h; leave the unit off.

[ask] Could you share which half-life at 2 μM value was measured for O=C(O)c1nn[nH]c1Oc1ccc(S(F)(F)(F)(F)F)cc1 ?
[reply] 3.65

[ask] Field entry: O=C(O)c1nn[nH]c1Oc1ccc(-c2ccc3c(c2)OCO3)cc1
[reply] 6.68

[ask] Field entry: O=C(O)c1nn[nH]c1Oc1ccc(-c2ccc3ccccc3c2)cc1
[reply] 1.12

[ask] Field entry: O=C(O)c1nn[nH]c1Oc1ccc(Cl)cc1
[reply] 1.26

[ask] Field entry: COc1ccc(-c2ccc(Oc3[nH]nnc3C(=O)O)cc2)cc1OC
[reply] 5.2

[ask] Field entry: CCC(CC)c1ccc(Oc2[nH]nnc2C(=O)O)cc1
[reply] 4.61

[ask] Field entry: O=C(O)c1nn[nH]c1Oc1cccc(-c2cc(Cl)cc(Cl)c2)c1
[reply] 1.67

[ask] Field entry: O=C(O)c1nn[nH]c1Oc1cncc(-c2ccccc2)c1
[reply] 1.63

---

Hi there, I'd appreciate the recorded half-life at 2 μM for every entry that follows.
Experiment Description: Stability in human plasma
Type: in vitro ADME
Condition Label: read-out: Plasma Stability T1/2
Give just the number in h; leave the unit off.

[ask] Could you share which half-life at 2 μM value was measured for C#Cc1cccc(Oc2[nH]nnc2C(=O)O)c1 ?
[reply] 1.96

[ask] Field entry: Cc1cc(Oc2[nH]nnc2C(=O)O)ccc1Cl
[reply] 1.05

[ask] Field entry: O=C(O)c1nn[nH]c1Oc1cccc(-c2cccnc2)c1
[reply] 1.33

[ask] Field entry: Cc1ccc(-c2ccc(Oc3[nH]nnc3C(=O)O)cc2)cc1
[reply] 0.669

---

Hi there, I'd appreciate the recorded recovery at 5 h, 1 μM for every entry that follows.
Experiment Description: Protein binding (plasma equilibrium dialysis)
Format: in vitro ADME
Condition Label: 5 hours at 37° C.
Give just the number in %; leave the unit off.

[ask] Could you share which recovery at 5 h, 1 μM value was measured for O=C(O)c1[nH]nnc1Oc1ccc(Cl)c(Cl)c1 ?
[reply] 71.2

[ask] Field entry: O=C(O)c1nn[nH]c1Oc1ccc(-c2ccccc2)cc1
[reply] 100

[ask] Field entry: O=C(O)c1nn[nH]c1Oc1ccc(-c2ccc(F)cc2)cc1
[reply] 93.6

[ask] Field entry: O=C(O)c1nn[nH]c1Oc1ccc(C2CCC2)cc1
[reply] 98.5

[ask] Field entry: O=C(O)c1nn[nH]c1Oc1cccc(-c2ccncc2)c1
[reply] 114

[ask] Field entry: COc1ccc(-c2cccc(Oc3[nH]nnc3C(=O)O)c2)cc1
[reply] 98.8

[ask] Field entry: O=C(O)c1nn[nH]c1Oc1ccc(-c2ccccc2F)cc1
[reply] 99.9

[ask] Field entry: O=C(O)c1nn[nH]c1Oc1cccc(-c2ccccc2)c1
[reply] 99.2

[ask] Field entry: CS(=O)(=O)c1ccc(-c2ccc(Oc3[nH]nnc3C(=O)O)cc2)cc1
[reply] 95.5
